SYSTEM NAME: Solute carrier organic anion transporter family member 2A1 (Homo sapiens, UniProt Q92959)
METHOD NOTES: TP_TRANSPORTER: uptake in PGT-expressing HeLa cells
Format: functional, cell-based
OUTCOME MEASURE: K1/2 (µM)

Worked cases, K1/2 given:
- MOLECULE: "CCCCC[C@H](O)/C=C/[C@@H]1[C@@H](C/C=C\\CCCC(=O)O)[C@@H](O)C[C@H]1O [DINOPROST]"
  SYSTEM NAME: "Solute carrier organic anion transporter family member 2A1 (Homo sapiens, UniProt Q92959)"
  OBSERVED RESULT: 0.092
- MOLECULE: "CCCCC[C@H](O)/C=C/[C@H]1C(=O)C[C@H](O)[C@@H]1C/C=C\\CCCC(=O)O [PROSTAGLANDIN D2]"
  SYSTEM NAME: "Solute carrier organic anion transporter family member 2A1 (Homo sapiens, UniProt Q92959)"
  OBSERVED RESULT: 0.083
- MOLECULE: "CCCCC[C@H](O)/C=C/[C@H]1[C@H](O)CC(=O)[C@@H]1CCCCCCC(=O)O [ALPROSTADIL]"
  SYSTEM NAME: "Solute carrier organic anion transporter family member 2A1 (Homo sapiens, UniProt Q92959)"
  OBSERVED RESULT: 0.082

(1) CCCCC[C@H](O)/C=C/[C@H]1[C@H](O)CC(=O)[C@@H]1C/C=C\CCCC(=O)O [DINOPROSTONE]
(2) CCCCC[C@H](O)/C=C/[C@H]1OC(O)C[C@H](O)[C@@H]1C/C=C\CCCC(=O)O (stereo not given in full) [THROMBOXANE B2]
Among 1 and 2 , which shows a numerically higher K1/2 result? Choose, then provide that item's label. 2
